Source listed as ChEMBL document CHEMBL4513216.

- ASSAY COMMENT: Toxicity liver stage against HepG2, at 10uM
- Format: cell-based
- Design: test concentration 10 uM, cell line HepG2-A16-CD81EGFP
- COND: human, HepG2-A16-CD81EGFP cells; read-out: INHIBITION
Please respond with reported cytotoxicity at 10 µM for every item in the list.

Previously resolved entries follow.
COMPOUND: Cn1cncc1CNC1CC2(CCN(S(C)(=O)=O)CC2)c2ccccc21 (stereo not given)
READOUT NAME: cytotoxicity at 10 µM
REPORTED MEASUREMENT: 1.55%
--
COMPOUND: CCOc1ccc(Cl)c(C(=O)NCc2ccc(C(=O)NC)cc2)n1
READOUT NAME: cytotoxicity at 10 µM
REPORTED MEASUREMENT: -9.88%
--
COMPOUND: CC(=O)N1CCCC1c1ccnc(Nc2cncnc2)n1 (stereo not given)
READOUT NAME: cytotoxicity at 10 µM
REPORTED MEASUREMENT: -25.6%
--
COMPOUND: CC1CN(CC(=O)NCc2ccccn2)CCN1Cc1nccn1C (stereo not given)
READOUT NAME: cytotoxicity at 10 µM
REPORTED MEASUREMENT: -4.07%
--
COMPOUND: Cc1cnn(CCNCc2csc(-c3cccs3)n2)c1
READOUT NAME: cytotoxicity at 10 µM
REPORTED MEASUREMENT: -9.91%

Dear colleague, could you send me cytotoxicity at 10 µM for each of the items below? Thanks.
1. CC(C)c1nccc(CN2CCCC(O)(CN(C)C)CC2)n1 (stereo not given)
2. Cc1cnn(CC2CCCCN2CCCS(C)(=O)=O)c1 (stereo not given)
3. Cc1cccc(CN2C[C@@H]3COC[C@]3(CNC(=O)c3ccccc3)C2)n1
4. CCCn1cc(C(=O)N2CCOC(c3nc(-c4cccs4)no3)C2)cn1 (stereo not given)

### Response
1: -2.01%; 2: -10.1%; 3: -0.0606%; 4: -4.22%

Dear colleague, could you send me cytotoxicity at 10 µM for each of the items below? Thanks.
1. Cc1cc(CN2CCCC2Cn2cccn2)no1 (stereo not given)
2. CCCNC(=O)CSCc1ccc(S(=O)(=O)N(C)C)o1
3. O=C(CN1CCCc2cc(F)cc(F)c21)Nc1ccc(Br)cn1
4. CCC1C(=O)NCCN1c1nccc(C)n1 (stereo not given)
5. Cc1cnn(CC(C)NCC(=O)NCCOc2ccccc2)c1 (stereo not given)

### Response
["-4.36%", "9.8%", "11%", "0.889%", "1.36%"]

Dear colleague, could you send me cytotoxicity at 10 µM for each of the items below? Thanks.
1. CN(C)Cc1cn(-c2ccccc2C(=O)NCCC2CCCN2C)cn1 (stereo not given)
2. CCc1nc(CNC(=O)c2ccc(C(C)N3CCCCC3)o2)cc(=O)[nH]1 (stereo not given)
3. COCc1ncn2c1CN(C(=O)c1cccc3cccnc13)CC2
4. CN(C)CCNC(=O)Cn1cnc2cc(NC(=O)C3CC3)ccc21
5. CC1(C)CN=C(N2CCN(CC3CCOC3)CC2)S1 (stereo not given)

### Response
["4.08%", "-13.6%", "-19.7%", "-14.3%", "11.7%"]

Dear colleague, could you send me cytotoxicity at 10 µM for each of the items below? Thanks.
1. COc1cc(OC)cc(-c2noc(CC(N)c3ccccc3)n2)c1 (stereo not given)
2. CCC[C@H]1CN(CCS(C)(=O)=O)C[C@@H]1NC(=O)c1ccccn1
3. CC(O)c1cn(C2CCN(C(=O)C3(C)CCN(C)CC3)CC2)nn1 (stereo not given)
4. Cc1nn(C)c(C)c1CCC(=O)Nc1cccn(C)c1=O
5. COCc1noc(-c2ccc(N3CCCCC3CCCO)nc2)n1 (stereo not given)

### Response
["4.47%", "1.13%", "-0.293%", "-1.96%", "-3.31%"]

### Prompt Any idea what cytotoxicity at 10 µM was measured for O=C(C1CCC1)N1C2CCC(O)(CC2)C1CN1CCOCC1 (stereo not given) ?
### Response -1.63%
